Molecular target: T1, human GIP receptor (human, UniProt P48546 22-466)
T1 sequence (looked up): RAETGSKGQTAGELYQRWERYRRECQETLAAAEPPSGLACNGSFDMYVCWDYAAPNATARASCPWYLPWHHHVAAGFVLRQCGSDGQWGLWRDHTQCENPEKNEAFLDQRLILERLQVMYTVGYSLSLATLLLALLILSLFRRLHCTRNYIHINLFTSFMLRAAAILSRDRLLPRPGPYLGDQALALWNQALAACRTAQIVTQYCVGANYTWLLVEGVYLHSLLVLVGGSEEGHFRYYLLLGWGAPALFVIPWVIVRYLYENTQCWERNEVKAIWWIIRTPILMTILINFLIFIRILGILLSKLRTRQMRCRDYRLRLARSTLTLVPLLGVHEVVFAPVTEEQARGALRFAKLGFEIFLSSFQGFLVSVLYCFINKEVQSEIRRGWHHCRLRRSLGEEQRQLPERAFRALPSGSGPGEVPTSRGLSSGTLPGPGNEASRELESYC
Assay: cell-based or functional assay
endpoint.label: Emax, cAMP (%)
// note: answer is a bare numeric in %

Enquiry: // lookup Emax, cAMP for YXEGTXTSDXSIXLDXKAQXEFIXXLIEGGPSSGAPPPSK (Aib2, αMeF(2F)6, 4Pal10, αMeL13, Orn16, Aib20, D-Glu24, αMeY25, K17 and K40: K(AEEA2-(γ-Glu)-(4-(4-tert-butylphenyl)butanoyl)), C-terminal NH2) [Example 135]
Return: 92.3

Enquiry: Param item: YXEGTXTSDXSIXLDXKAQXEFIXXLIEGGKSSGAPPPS (Aib2, αMeF(2F)6, OMeY10, αMeL13, Orn16, Aib20, D-Glu24, αMeY25, K17 and K31: K(AEEA2-(γ-Glu)-CO-(CH2)12-CO2H), C-terminal NH2) [Example 58]
Return: 89.2

Enquiry: Param item: YXEGTXTSDXSIXLDXKAQXEFIKXLIEGGPSSGAPPPS (Aib2, αMeF(2F)6, Ac5c10, αMeL13, Orn16, Aib20, αMeY25, K17 and K24: K(AEEA2-(γ-Glu)-CO-(CH2)12-CO2H), C-terminal NH2) [Example 116]
Return: 115

Enquiry: Param item: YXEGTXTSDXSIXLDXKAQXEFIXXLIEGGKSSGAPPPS (Aib2, αMeF(2F)6, hTyr10, αMeL13, Orn16, Aib20, D-Glu24, αMeY25, K17 and K31: K(AEEA2-(γ-Glu)-CO-(CH2)12-CO2H), C-terminal NH2) [Example 59]
Return: 89.2

Enquiry: Param item: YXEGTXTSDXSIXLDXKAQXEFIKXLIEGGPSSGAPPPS (Aib2, αMeF(2F)6, 4Pal10, αMeL13, Orn16, Aib20, αMeY25, K17 and K24: K(AEEA3-(γ-Glu)-CO-(CH2)12-CO2H), C-terminal NH2) [Example 80]
Return: 92.4

Enquiry: Param item: YXEGTXTSDXSIXLDXKAQXEXIKXLIEGGPSSGAPPPS (Aib2, αMeF(2F)6, 4Pal10, αMeL13, Orn16, Aib20, αMeF22, αMeF25, K17 and K24: K(AEEA2-(γ-Glu)-CO-(CH2)12-CO2H), C-terminal NH2) [Example 84]
Return: 98.5

Enquiry: Param item: YXEGTXTSDXSIXLDXIAQXKFIXXLIEGGPSSGAPPPSK (Aib2, αMeF(2F)6, 4Pal10, αMeL13, Orn16, Aib20, D-Glu24, αMeY25, K21 and K40: K(AEEA2-(γ-Glu)-CO-(CH2)12-CO2H), C-terminal NH2) [Example 75]
Return: 92.3

Enquiry: Param item: YXEGTXTSDXSIXLDXKAQXEFIXXLIEGKPSSGAPPPS (Aib2, αMeF(2F)6, 4Pal10, αMeL13, Orn16, Aib20, D-Glu24, αMeY25, K17 and K30: K(AEEA2-(γ-Glu)-CO-(CH2)12-CO2H), C-terminal NH2) [Example 18]
Return: 97.1

Enquiry: Param item: YXEGTXTSDVSIXLDXKAQXEFIXXLIEGGKSSGAPPPS (Aib2, αMeF(2F)6, αMeL13, Orn16, Aib20, D-Glu24, αMeY25, K17 and K31: K(AEEA2-(γ-Glu)-CO-(CH2)12-CO2H), C-terminal NH2) [Example 90]
Return: 93

Enquiry: Param item: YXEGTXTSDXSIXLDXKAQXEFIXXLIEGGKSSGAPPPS (Aib2, αMeF(2F)6, Ac6c10, αMeL13, Orn16, Aib20, D-Glu24, αMeY25, K17 and K31: K(AEEA2-(γ-Glu)-CO-(CH2)12-CO2H), C-terminal NH2) [Example 54]
Return: 113

Enquiry: Param item: YXEGTXTSDXSIXLDXKAQXGFIXXLIEGGKSSGAPPPS (Aib2, αMeF(2F)6, 4Pal10, αMeL13, Orn16, Aib20, D-Glu24, αMeY25, K17 and K31: K(AEEA2-(γ-Glu)-CO-(CH2)12-CO2H), C-terminal NH2) [Example 103]
Return: 92.8

Enquiry: Param item: YXEGTXTSDXSIXLDXIAQXEFIXXLIKGGKSSGAPPPS (Aib2, αMeF(2F)6, 4Pal10, αMeL13, Orn16, Aib20, D-Glu24, αMeY25, K28 and K31: K(AEEA2-(γ-Glu)-CO-(CH2)12-CO2H), C-terminal NH2) [Example 20]
Return: 98.8

Enquiry: Param item: YXEGTXTSDXSIXLDXIAQXKFIKXLIEGGPSSGAPPPS (Aib2, αMeF(2F)6, 4Pal10, αMeL13, Orn16, Aib20, αMeY25, K21 and K24: K(AEEA2-(γ-Glu)-CO-(CH2)12-CO2H), C-terminal NH2) [Example 69]
Return: 99

Enquiry: Param item: YXEGTXTSDXXIXLDXKAQXEXIKXLIEGGPSSGAPPPS (Aib2, αMeF(2F)6, 4Pal10, Aib11, αMeL13, Orn16, Aib20, αMeF22, αMeY25, K17 and K24: K(AEEA2-(γ-Glu)-CO-(CH2)12-CO2H), C-terminal NH2) [Example 117]
Return: 96.4

Enquiry: Param item: YXEGTXTSDYXIXLDXKAQXEFIXXLIEGGKSSGAPPPS (Aib2, αMeF(2F)6, Aib11, αMeL13, Orn16, Aib20, D-Glu24, αMeY25, K17 and K31: K(AEEA2-(γ-Glu)-CO-(CH2)12-CO2H), C-terminal NH2) [Example 50]
Return: 94.7

Enquiry: Param item: YXEGTXTSDXSIXLDXIAQXKFIXXLIKGGPSSGAPPPS (Aib2, αMeF(2F)6, 4Pal10, αMeL13, Orn16, Aib20, D-Glu24, αMeY25, K21 and K28: K(AEEA2-(γ-Glu)-CO-(CH2)12-CO2H), C-terminal NH2) [Example 73]
Return: 97.1

Enquiry: Param item: YXEGTXTSDKSIXLDXKAQXEFIXXLIEGGPSSGAPPPS (Aib2, αMeF(2F)6, αMeL13, Orn16, Aib20, D-Glu24, αMeY25, K10 and K17: K(AEEA2-(γ-Glu)-(4-(4-tert-butylphenyl)butanoyl)), C-terminal NH2) [Example 130]
Return: 94.7

Enquiry: Param item: YXEGTXTSDXSIXLDXIAQXEFIKXLIEGGKSSGAPPPS (Aib2, αMeF(2F)6, 4Pal10, αMeL13, Orn16, Aib20, αMeY25, K24 and K31: K(AEEA2-(γ-Glu)-CO-(CH2)12-CO2H), C-terminal NH2) [Example 71]
Return: 93.8

Enquiry: Param item: YXEGTXTSDXSIXLDXKAQXEXIKXLIEGGPSSGAPPPS (Aib2, αMeF(2F)6, 4Pal10, αMeL13, Orn16, Aib20, αMeF22, αMeY25, K17 and K24: K(AEEA2-(γ-Glu)-CO-(CH2)12-CO2H), C-terminal NH2) [Example 82]
Return: 81.4

Enquiry: Param item: YXEGTXTSDXXIXLDXKAQXEFIXXLIEGGKSSGAPPPS (Aib2, αMeF(2F)6, 4Pal10, Aib11, αMeL13, Orn16, Aib20, D-Glu24, αMeY25, K17 and K31: K(AEEA2-(γ-Glu)-CO-(CH2)12-CO2H), C-terminal NH2) [Example 89]
Return: 88.9

Enquiry: Param item: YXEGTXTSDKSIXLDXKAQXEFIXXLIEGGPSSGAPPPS (Aib2, αMeF(2F)6, αMeL13, Orn16, Aib20, D-Glu24, αMeY25, K10 and K17: K(AEEA2-(γ-Glu)-CO-(CH2)10-CH3), C-terminal NH2) [Example 136]
Return: 97.4

Enquiry: Param item: YXEGTXTSDXSIXLDXQAQXEFIXXLIKGGKSSGAPPPS (Aib2, αMeF(2F)6, 4Pal10, αMeL13, Orn16, Aib20, D-Glu24, αMeY25, K28 and K31: K(AEEA2-(γ-Glu)-CO-(CH2)12-CO2H), C-terminal NH2) [Example 86]
Return: 94.2

Enquiry: Param item: YXEGTXTSDXSIXLDXKAQXEFIGXLIEGGKSSGAPPPS (Aib2, αMeF(2F)6, 4Pal10, αMeL13, Orn16, Aib20, αMeY25, K17 and K31: K(AEEA2-(γ-Glu)-CO-(CH2)12-CO2H), C-terminal NH2) [Example 104]
Return: 94.9

Enquiry: Param item: YXEGTXTSDXSIXLDXKAQXEXIKYLIEGGPSSGAPPPS (Aib2, αMeF(2F)6, 4Pal10, αMeL13, Orn16, Aib20, αMeF22, K17 and K24: K(AEEA2-(γ-Glu)-CO-(CH2)12-CO2H), C-terminal NH2) [Example 85]
Return: 91.7

Enquiry: Param item: YXEGTXTSDXSIXLDXIAQXKFIXXLIEGGKSSGAPPPS (Aib2, αMeF(2F)6, 4Pal10, αMeL13, Orn16, Aib20, D-Glu24, αMeY25, K21 and K31: K(AEEA2-(γ-Glu)-CO-(CH2)12-CO2H), C-terminal NH2) [Example 74]
Return: 93.3

Recorded values, source patent US20230265151A1.
